# Tested on: SK-MEL-2 melanoma
# Experiment Description: NCI tumour cell line growth inhibition, 48 h
Listed here: items and their measured TGI.

Worked set:
{"Compound": "CCN1C[C@]2(C)CC[C@H](O)C34C1C(C[C@@H]32)[C@@]1(O)CC[C@H]2C[C@@H]4[C@@H]1[C@H]2O", "Study System": "SK-MEL-2 melanoma", "Property Measured": "TGI", "Data Value": "> 100 µM"}
{"Compound": "COc1ccc2c(c1)C(=O)/C(=C/c1cccc(OCC(=O)c3ccccc3)c1)O2", "Study System": "SK-MEL-2 melanoma", "Property Measured": "TGI", "Data Value": "30.5 µM"}

Next:
Recorded TGI (compound CN(C)C/C=C/C(=O)Nc1ccc(C(=O)N[C@@]2(C)CCC[C@@H](Nc3ncc(Cl)c(-c4c[nH]c5ccccc45)n3)C2)nc1 ): 0.0511 µM

====

# Tested on: SK-MEL-5 melanoma
# Experiment Description: NCI tumour cell line growth inhibition, 48 h
Listed here: items and their measured TGI.
Respond with the bare value in µM.

{"Compound": "COc1ccc2c(c1)CN1C(=N2)CSC1c1cccc(Br)c1 (stereo not drawn)", "Study System": "SK-MEL-5 melanoma", "TGI (µM)": 83.7}

// returns TGI for CCN1C(=O)/C(=C/c2c(Cl)[nH]c3cc(C)c(OC)cc23)c2ccccc21 with SK-MEL-5 melanoma; value = 8.19

// returns TGI for Cc1cc(C)c2c(=O)cc(-c3cccc4ccccc34)[nH]c2n1 with SK-MEL-5 melanoma; value = 1.74

// returns TGI for N[C@H](C(=O)O)[C@@H]1CC(Cl)=NO1 with SK-MEL-5 melanoma; value = 493

// returns TGI for CNC1(c2cc3ccccc3s2)CCCCC1 with SK-MEL-5 melanoma; value = 36

// returns TGI for COC(=O)[C@@H]1C=C[C@H](OC2OC(COC(C)=O)C(OC(C)=O)C(OC(C)=O)C2OC(C)=O)n2c(=O)n(-c3ccccc3)c(=O)n21 (stereo partly drawn) with SK-MEL-5 melanoma; value = 7

====

Listed here: items and their measured TGI.
# Test system: SK-MEL-2 melanoma
# Experiment Description: NCI tumour cell line growth inhibition, 48 h

Worked set:
{"Compound": "O=C1C=C(Nc2ccccc2C(=O)CC(=O)C(=O)Nc2cccc([N+](=O)[O-])c2)c2ccccc2C1=O", "TGI": "> 100 µM"}
{"Compound": "OC(CNc1ccccn1)c1ccccc1 (stereo not given)", "TGI": "> 100 µM"}
{"Compound": "O=C(Nc1ccc(C(F)(F)F)cc1[N+](=O)[O-])C(=O)C1NC(=S)NC1=O (stereo not given)", "TGI": "> 100 µM"}
{"Compound": "O=C(Nc1ccc(Cl)cc1)C1C(=O)C(=O)N(c2ccc(Cl)cc2)C1=O (stereo not given)", "TGI": "> 100 µM"}

Next:
Recorded TGI (compound Cc1ccc(C(=O)O)c(/C=C2\Cc3ccc(C)cc3C2=O)c1 ): > 100 µM

====

# Tested on: OVCAR-4 ovarian
# Experiment Description: NCI tumour cell line growth inhibition, 48 h
Property Measured: TGI

Worked set:
{"Compound": "CCCCCCCCn1ccc2cc(NC(=O)Cn3cc(CN4CCCCCC4)nn3)ccc21", "TGI": "3.13 µM"}
{"Compound": "Cc1cc(N(CC(C)Br)CC(C)Br)ccc1N=Nc1ccccc1C(=O)O (stereo unspecified)", "TGI": "5.53 µM"}
{"Compound": "COc1ccc(Cn2c3c(cc(OC(C)=O)c2=O)Cc2ccccc2-3)cc1", "TGI": "> 50 µM"}
{"Compound": "CS(=O)(=O)CCNCc1coc(-c2ccc3ncnc(Nc4ccc(OCc5ccccc5)cc4)c3c2)c1", "TGI": "> 25 µM"}
{"Compound": "Nc1cc([N+](=O)[O-])ccc1C(=O)N1CCC[C@H]1CO", "TGI": "> 100 µM"}

Next:
// returns TGI for CCOP(=Nc1ccc(N(C)C)cc1)(OCC)OCC with OVCAR-4 ovarian; value = > 100 µM
